assay: Ratio of Oxytocin to Pressor activity; format: functional
reported endpoint: Ratio

In: Please look up its Ratio: "CC[C@H](C)[C@@H]1NC(=O)[C@@H](Cc2ccc(O)cc2)NC(=O)[C@H](N)CSSC[C@@H](C(=O)N(C)CC(=O)N[C@@H](CC(C)C)C(=O)NCC(N)=O)NC(=O)[C@H](CC(N)=O)NC(=O)[C@@H]([C@H](C)O)NC1=O"
Out: > 2350

In: Please look up its Ratio: "CC[C@H](C)[C@@H]1NC(=O)[C@@H](Cc2ccc(O)cc2)NC(=O)[C@H](N)CSSC[C@@H](C(=O)N(C)[C@H](C)C(=O)N[C@@H](CC(C)C)C(=O)NCC(N)=O)NC(=O)[C@H](CC(N)=O)NC(=O)[C@@H]([C@H](C)O)NC1=O"
Out: > 192

In: Please look up its Ratio: "CC[C@H](C)[C@@H]1NC(=O)[C@@H](Cc2ccc(O)cc2)NC(=O)[C@H](N)CSSC[C@@H](C(=O)N2CCC[C@@H]2C(=O)N[C@@H](CC(C)C)C(=O)NCC(N)=O)NC(=O)[C@H](CC(N)=O)NC(=O)[C@@H]([C@H](C)O)NC1=O"
Out: 2150

In: Please look up its Ratio: CC[C@H](C)[C@@H]1NC(=O)[C@H](Cc2ccc(O)cc2)NC(=O)[C@@H](N)CSSC[C@@H](C(=O)N2CCC[C@H]2C(=O)N[C@@H](CC(C)C)C(=O)NCC(N)=O)NC(=O)[C@H](CC(N)=O)NC(=O)[C@H](CCC(N)=O)NC1=O [OXYTOCIN]
Out: 120

In: Please look up its Ratio: "CC[C@H](C)[C@@H]1NC(=O)[C@@H](Cc2ccc(O)cc2)NC(=O)[C@H](N)CSSC[C@@H](C(=O)N(C)[C@H](C)C(=O)N[C@@H](CC(C)C)C(=O)NCC(N)=O)NC(=O)[C@H](CC(N)=O)NC(=O)[C@@H](CCC(N)=O)NC1=O"
Out: > 177

In: Please look up its Ratio: "CC[C@H](C)[C@@H]1NC(=O)[C@@H](Cc2ccc(O)cc2)NC(=O)[C@H](N)CSSC[C@@H](C(=O)N(C)CC(=O)N[C@@H](CC(C)C)C(=O)NCC(N)=O)NC(=O)[C@H](CC(N)=O)NC(=O)[C@@H](CCC(N)=O)NC1=O"
Out: > 1310

###

species: Rattus norvegicus; test: In vitro for uterotonic activity in the absence of Mg2+ ion by Munsick method; format: functional
reported endpoint: Activity (U mg-1)
Please give a number only; it is taken to be in U mg-1.

In: Please look up its Activity: "CC[C@H](C)[C@@H]1NC(=O)[C@H](Cc2ccc(O)cc2)NC(=O)[C@@H](N)CSSC[C@@H](C(=O)N(C)CC(=O)N[C@@H](CC(C)C)C(=O)NCC(N)=O)NC(=O)[C@H](CC(N)=O)NC(=O)[C@H]([C@@H](C)O)NC1=O"
Out: 1173

In: Please look up its Activity: "CC[C@H](C)[C@@H]1NC(=O)[C@H](Cc2ccc(O)cc2)NC(=O)[C@@H](N)CSSC[C@@H](C(=O)N2CCC[C@H]2C(=O)N[C@@H](CC(C)C)C(=O)NCC(N)=O)NC(=O)[C@H](CC(N)=O)NC(=O)[C@H]([C@@H](C)O)NC1=O"
Out: 923

In: Please look up its Activity: CC[C@H](C)[C@@H]1NC(=O)[C@H](Cc2ccc(O)cc2)NC(=O)[C@@H](N)CSSC[C@@H](C(=O)N2CCC[C@H]2C(=O)N[C@@H](CC(C)C)C(=O)NCC(N)=O)NC(=O)[C@H](CC(N)=O)NC(=O)[C@H](CCC(N)=O)NC1=O [OXYTOCIN]
Out: 520

In: Please look up its Activity: "CC[C@H](C)[C@@H]1NC(=O)[C@H](Cc2ccc(O)cc2)NC(=O)[C@@H](N)CSSC[C@@H](C(=O)N(C)[C@@H](C)C(=O)N[C@@H](CC(C)C)C(=O)NCC(N)=O)NC(=O)[C@H](CC(N)=O)NC(=O)[C@H]([C@@H](C)O)NC1=O"
Out: 115

In: Please look up its Activity: "CC[C@H](C)[C@@H]1NC(=O)[C@H](Cc2ccc(O)cc2)NC(=O)[C@@H](N)CSSC[C@@H](C(=O)N(C)[C@@H](C)C(=O)N[C@@H](CC(C)C)C(=O)NCC(N)=O)NC(=O)[C@H](CC(N)=O)NC(=O)[C@H](CCC(N)=O)NC1=O"
Out: 62

In: Please look up its Activity: "CC[C@H](C)[C@@H]1NC(=O)[C@H](Cc2ccc(O)cc2)NC(=O)[C@@H](N)CSSC[C@@H](C(=O)N(C)CC(=O)N[C@@H](CC(C)C)C(=O)NCC(N)=O)NC(=O)[C@H](CC(N)=O)NC(=O)[C@H](CCC(N)=O)NC1=O"
Out: 459
